assay.overview: Plasma pharmacokinetics of CBD after single IV or oral administration
Type: in vivo, male Sprague-Dawley rats
assay.conditions: male, Sprague-Dawley, IV 2 mg/kg, rat, time 120 min, read-out: Concentration (CBD in blood plasma)
readout.name: concentration at 120 min (ng/mL)
# unit: ng/mL | format: bare number

Param item = C=C(C)[C@@H]1CCC(C)=C[C@H]1c1c(O)cc(CCCCC)cc1O ; retrieve measured concentration at 120 min.
178

* * *

assay.overview: Plasma pharmacokinetics of CBD after single IV or oral administration
Assay type: in vivo, male Sprague-Dawley rats
assay.conditions: male, Sprague-Dawley, IV 2 mg/kg, rat
readout.name: AUC(0-t) (ng·h/mL)
# unit: ng·h/mL | format: bare number

Param item = C=C(C)[C@@H]1CCC(C)=C[C@H]1c1c(O)cc(CCCCC)cc1O ; retrieve measured AUC(0-t).
1980

* * *

assay.overview: Plasma pharmacokinetics of CBD after single IV or oral administration
Format: in vivo, male Sprague-Dawley rats
assay.conditions: male, Sprague-Dawley, IV 2 mg/kg, rat, read-out: Tmax (time at maximum concentration)
readout.name: Tmax (min)
# unit: min | format: bare number

Param item = C=C(C)[C@@H]1CCC(C)=C[C@H]1c1c(O)cc(CCCCC)cc1O ; retrieve measured Tmax.
15

* * *

assay.overview: Plasma pharmacokinetics of CBD after single IV or oral administration
Assay type: in vivo, male Sprague-Dawley rats
assay.conditions: male, Sprague-Dawley, IV 2 mg/kg, rat, time 240 min, read-out: Concentration (CBD in blood plasma)
Procedure: Plasma pharmacokinetics following single intravenous cannabidiol (CBD solid) or oral administration (4 emulsions+1 non-emulsified oil) was investigated in male Sprague-Dawley rats. Rats were used for this study because they are an accepted model for characterization of pharmacokinetics of formulations being developed for humans. […] The CBD concentration in blood plasma samples obtained at various collection times (15, 30, 60, 120, 180, 240, 480 minutes and 24 hr) was determined. […]
readout.name: concentration at 240 min
Answer by giving the amount and then stating its unit.

Param item = C=C(C)[C@@H]1CCC(C)=C[C@H]1c1c(O)cc(CCCCC)cc1O ; retrieve measured concentration at 240 min.
44.2 ng/mL

* * *

assay.overview: Plasma pharmacokinetics of CBD after single IV or oral administration
Format: in vivo, male Sprague-Dawley rats
assay.conditions: male, Sprague-Dawley, IV 2 mg/kg, rat
Description: Plasma pharmacokinetics following single intravenous cannabidiol (CBD solid) or oral administration (4 emulsions+1 non-emulsified oil) was investigated in male Sprague-Dawley rats. Rats were used for this study because they are an accepted model for characterization of pharmacokinetics of formulations being developed for humans. […] The CBD concentration in blood plasma samples obtained at various collection times (15, 30, 60, 120, 180, 240, 480 minutes and 24 hr) was determined. […]
readout.name: AUC(0-inf) (ng·h/mL)
# unit: ng·h/mL | format: bare number

Param item = C=C(C)[C@@H]1CCC(C)=C[C@H]1c1c(O)cc(CCCCC)cc1O ; retrieve measured AUC(0-inf).
2010

* * *

assay.overview: Plasma pharmacokinetics of CBD after single IV or oral administration
Assay type: in vivo, male Sprague-Dawley rats
assay.conditions: male, Sprague-Dawley, IV 2 mg/kg, rat, time 24 hr, read-out: Concentration (CBD in blood plasma)
readout.name: concentration at 24 hr (ng/mL)
# unit: ng/mL | format: bare number

Param item = C=C(C)[C@@H]1CCC(C)=C[C@H]1c1c(O)cc(CCCCC)cc1O [CBD solid, cannabidiol] ; retrieve measured concentration at 24 hr.
5.2

* * *

assay.overview: Plasma pharmacokinetics of CBD after single IV or oral administration
Assay type: in vivo, male Sprague-Dawley rats
assay.conditions: male, Sprague-Dawley, IV 2 mg/kg, rat, time 60 min, read-out: Concentration (CBD in blood plasma)
readout.name: concentration at 60 min (µg/mL)
# unit: µg/mL | format: bare number

Param item = C=C(C)[C@@H]1CCC(C)=C[C@H]1c1c(O)cc(CCCCC)cc1O ; retrieve measured concentration at 60 min.
0.341
